- assay name: Biofilm cell mortality, BacTiter-Glo luminescent assay
- Assay type: cell-based, Pseudomonas aeruginosa
- experimental context: 24 h formed biofilm; 4 h at 37° C.; 10% Triton X-100 as maximum reference; N.D. = not detected at 50 μM; read-out: Biofilm cell mortality (%max)
- Experimental: Bacterial viability was assayed using the BacTiter-Glo™ microbial cell viability kit. […] Luminescence was read on a Victor3 plate reader with a 3-s integration time. Fifty percent (ED50) and total inhibitory concentrations were calculated by fitting the data to a dose-response curve. As a first approach, the biofilm cell viability was monitored using the BacTiter-Glo™ luminescent assay. […]
Residues, ends and D or L forms follow the SMILES beside them.
measured metric: mortality (%)
Quick reminder: number only, in %, skip the unit.

What the record says about CC[C@H](C)[C@H](NC(=O)[C@H](Cc1ccccc1)NC(=O)[C@@H](NC(=O)[C@H](Cc1ccccc1)NC(=O)[C@H](CCCNC(=N)N)NC(=O)[C@H](CCCCN)NC(=O)[C@H](CCCNC(=N)N)NC(=O)[C@H](CCCCN)NC(=O)[C@H](Cc1c[nH]c2ccccc12)NC(=O)[C@H](CC(C)C)NC(=O)[C@@H](NC(=O)[C@@H](N)Cc1ccc(O)cc1)C(C)C)[C@@H](C)CC)C(N)=O [WY-12, YVLWKRKRFIFI-NH2] (H-YVLWKRKRFIFI-NH2; N-terminus assumed) : mortality is 39.7
